# System: Plasmodium berghei
# experiment: Screen against P. berghei liver stage (PbLuc), transformed with Luciferase, at 2uM
# Format: functional, HepG2
# appliedConditions: tested at 2 uM
The whole screen tested about 68,000 compounds, of which about 2,700 (4%) showed an effect of 50% or more. The sample as a whole holds a higher share of strong results than the screen did.
readout: INHIBITION (%)
Give the quantity in %, number only.

Examples with their reported INHIBITION follow.
INHIBITION lookup needed for COCCOC(=O)N1CCC(c2nccn2CC2CC2)CC1 , thanks.
-1.87

INHIBITION lookup needed for O=C1CCCN1CCCNCc1cc(O)c2cccc(Cl)c2n1 , thanks.
-15.85

INHIBITION lookup needed for c1cnc(N2CCC(c3nccn3CC3CC3)CC2)nc1 , thanks.
18.81

INHIBITION lookup needed for O=C(c1ccccc1OCC1CC1)N1CCCC1Cn1cccn1 (stereo not given) , thanks.
-12.5

INHIBITION lookup needed for C1CCC(CN2Cc3nnn(CC4CC4)c3C(COCC3CC3)C2)C1 (stereo not given) , thanks.
-6.19

Next:
INHIBITION lookup needed for Cc1noc(C)c1CN1CCOC2(CCCN(c3nncs3)C2)C1 (stereo not given) , thanks.
31.96

INHIBITION lookup needed for O=C(COC1CCCCC1)Nc1ccn(CCc2ccncc2)n1 , thanks.
13.99

INHIBITION lookup needed for CCc1nnc2n1CCN(CC(=O)Nc1cc(C(C)(C)C)nn1C)C2 , thanks.
54.85

INHIBITION lookup needed for CS(=O)(=O)Cc1nc(CN2CCc3ccccc3CC2)cs1 , thanks.
41.05

INHIBITION lookup needed for Cc1ccc(CNCc2nnc3n2CCCC3C(F)(F)F)s1 (stereo not given) , thanks.
-73.29

INHIBITION lookup needed for CS(=O)(=O)N1CCC2(CC1)CC(NCc1ccco1)c1ccccc12 (stereo not given) , thanks.
-9.53
